This collection of values is drawn from ChEMBL document CHEMBL4138104.

Provide the reported GI50 of each item.
Test system: MDA-MB-231
EXPERIMENTAL DETAILS: Growth inhibition of human MDA-MB-231/ATCC cells incubated for 48 hrs by sulforhodamine B assay
Assay type: functional
TEST CONTEXT: MDA-MB-231, 48 h
Could you give me the number in µM? Just the number is fine.

stdin: Using known records, supply GI50 for C=C1C(=O)O[C@@H]2[C@H]3O[C@]3(C)CC/C=C(/COC(=O)c3cc4ccccc4[nH]3)CC[C@@H]12
stdout: 1.14

stdin: Using known records, supply GI50 for C=C1C(=O)O[C@@H]2[C@H]3O[C@]3(C)CC/C=C(/COC(=O)c3cc4cc(Cl)ccc4[nH]3)CC[C@@H]12
stdout: 1.32

stdin: Using known records, supply GI50 for C=C1C(=O)O[C@@H]2[C@H]3O[C@]3(C)CC/C=C(/COC(=O)c3cc4cc(OC)ccc4[nH]3)CC[C@@H]12
stdout: 1.58

stdin: Using known records, supply GI50 for C=C1C(=O)O[C@@H]2[C@H]3O[C@]3(C)CC/C=C(/COC(=O)c3cc4ccccc4s3)CC[C@@H]12
stdout: 1.97

stdin: Using known records, supply GI50 for C=C1C(=O)O[C@@H]2[C@H]3O[C@]3(C)CC/C=C(/COC(=O)CCCc3c[nH]c4ccccc34)CC[C@@H]12
stdout: 1.78

stdin: Using known records, supply GI50 for C=C1C(=O)O[C@@H]2[C@H]3O[C@]3(C)CC/C=C(/COC(=O)/C=C/c3c[nH]c4ccccc34)CC[C@@H]12
stdout: 0.17

stdin: Using known records, supply GI50 for C=C1C(=O)O[C@@H]2[C@H]3O[C@]3(C)CC/C=C(/COC(=O)c3cc4ccccc4o3)CC[C@@H]12
stdout: 1.64

###

Tested on: HT-29
EXPERIMENTAL DETAILS: Growth inhibition of human HT-29 cells incubated for 48 hrs by sulforhodamine B assay
Assay type: functional
TEST CONTEXT: HT-29, 48 h
GI50 less than 1000 nM is Yes; GI50 greater than or equal to 1000 nM is No.

stdin: Determine if C=C1C(=O)O[C@@H]2[C@H]3O[C@]3(C)CC/C=C(/COC(=O)c3cc4ccccc4o3)CC[C@@H]12 shows GI50 strictly lower than 1000 nM.
stdout: Yes

stdin: Determine if C=C1C(=O)O[C@@H]2[C@H]3O[C@]3(C)CC/C=C(/COC(=O)c3cn(C)c4ccccc34)CC[C@@H]12 shows GI50 strictly lower than 1000 nM.
stdout: Yes

stdin: Determine if C=C1C(=O)O[C@@H]2[C@H]3O[C@]3(C)CC/C=C(/COC(=O)c3cc4cc(Cl)ccc4[nH]3)CC[C@@H]12 shows GI50 strictly lower than 1000 nM.
stdout: No

stdin: Determine if C=C1C(=O)O[C@@H]2C3O[C@]3(C)CC/C=C(\C)CC[C@@H]12 (stereo not given in full) shows GI50 strictly lower than 1000 nM.
stdout: No

stdin: Determine if C=C1C(=O)O[C@@H]2[C@H]3O[C@]3(C)CC/C=C(/COC(=O)c3cc4ccccc4[nH]3)CC[C@@H]12 shows GI50 strictly lower than 1000 nM.
stdout: Yes

###

Test system: PC-3
EXPERIMENTAL DETAILS: Growth inhibition of human PC3 cells incubated for 48 hrs by sulforhodamine B assay
Type: functional
TEST CONTEXT: PC-3, 48 h
READOUT NAME: GI50 (nM)
Could you give me the number in nM? Just the number is fine.

stdin: Provide PC-3 GI50 reading for C=C1C(=O)O[C@@H]2[C@H]3O[C@]3(C)CC/C=C(/COC(=O)c3cc4cc(F)ccc4[nH]3)CC[C@@H]12 .
stdout: 1700

stdin: Provide PC-3 GI50 reading for C=C1C(=O)O[C@@H]2[C@H]3O[C@]3(C)CC/C=C(/COC(=O)c3cn(C)c4ccccc34)CC[C@@H]12 .
stdout: 1470

stdin: Provide PC-3 GI50 reading for C=C1C(=O)O[C@@H]2[C@H]3O[C@]3(C)CC/C=C(/COC(=O)c3c[nH]c4ccccc34)CC[C@@H]12 .
stdout: 380

stdin: Provide PC-3 GI50 reading for C=C1C(=O)O[C@@H]2[C@H]3O[C@]3(C)CC/C=C(/COC(=O)CCCc3c[nH]c4ccccc34)CC[C@@H]12 .
stdout: 1920

stdin: Provide PC-3 GI50 reading for C=C1C(=O)O[C@@H]2[C@H]3O[C@]3(C)CC/C=C(/COC(=O)c3cc4ccccc4s3)CC[C@@H]12 .
stdout: 1830

stdin: Provide PC-3 GI50 reading for C=C1C(=O)O[C@@H]2[C@H]3O[C@]3(C)CC/C=C(/COC(=O)c3cc4cc(Cl)ccc4[nH]3)CC[C@@H]12 .
stdout: 2420

stdin: Provide PC-3 GI50 reading for C=C1C(=O)O[C@@H]2[C@H]3O[C@]3(C)CC/C=C(/COC(=O)c3cc4ccccc4o3)CC[C@@H]12 .
stdout: 1760
